As shown below, each of these binders has a reported glycan array binding signal (z-score) value.
# study target: GalNAc(b1-4)GlcNAc
# method notes: glycan array binding signal (z-score within array); higher = stronger binding
# particulars: glycan notation: IUPAC condensed, linker removed
The entries come from a sample that favours the strongest signals as a whole.
In your answer, state the number alone without any accompanying words.

binder	quantitative result
SP16665A-bot-344-23-344 (Bacteroides ovatus) (protein) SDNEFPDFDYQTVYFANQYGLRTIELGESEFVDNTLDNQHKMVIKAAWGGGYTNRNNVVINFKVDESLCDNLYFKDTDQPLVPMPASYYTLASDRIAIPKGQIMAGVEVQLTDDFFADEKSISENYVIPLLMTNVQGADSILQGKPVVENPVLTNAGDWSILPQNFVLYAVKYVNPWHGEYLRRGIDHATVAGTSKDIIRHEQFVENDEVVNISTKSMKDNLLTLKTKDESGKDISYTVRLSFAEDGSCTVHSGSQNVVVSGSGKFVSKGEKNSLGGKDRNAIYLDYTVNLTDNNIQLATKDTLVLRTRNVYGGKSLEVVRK	1.18

## Task What does the data say about its glycan array binding signal (z-score)? Entry: CGL3 (Coprinopsis cinerea) (protein) MGHHHHHHHHSGFHILRLESTVDLSEPLKDNGIIVFQSDKLDLEPSPNLGPTGIDNTNVNLINAKGDVLLHIGIRRRENAFVFNSIPYGESRGPEERIPLEGTFGDRRDPSITVFDHPDRYQIMIDYKTVYYYKKRLEGRCEKVSYKINEGQTPPFSDVLGVTVLYFANVMPRAN
## Result 6.64
